Tested on: SR leukemia
assay comment: NCI-60 one-dose screen, 48 h (100 = growth as untreated, 0 = no growth, -100 = all killed)
measurement context: 10 µM unless noted
Compounds without any hit were thinned out: in the full panel of roughly 83,000, 20% have a hit. Active and inactive are the calls of the source. Rule for the calls: active = growth percent below 10; inactive = the rest.
For each entry below, report its growth value.

The following molecules have reported results that may help.
{"columns": ["molecule", "growth"],
 "data": [
  ["CCOc1ccccc1NC(=O)c1cc2ccccc2cc1O", "45.5% (inactive)"],
  ["OB(O)c1ccsc1-c1nc2ccc3[nH]ncc3c2c2c1CCCC2", "14.1% (inactive)"],
  ["COc1ccc(CN2CCc3c(Cl)nc(N)nc3C2=O)c(OC)c1", "3.87% [100 µM] (active)"],
  ["COc1cccc(C2C(C#N)=C(N)Oc3cc(OCCCCCC[P+](c4ccccc4)(c4ccccc4)c4ccccc4)ccc32)c1 (stereo not drawn)", "-48.8% (active)"],
  ["Clc1ccc2c(NCCN3CCN(c4ccnc(N5CCCC5)n4)CC3)ccnc2c1", "-12.2% (active)"],
  ["C=C(CNCCO)[C@@H]1CC[C@]2(CO)CC[C@]3(C)[C@H](CC[C@@H]4[C@@]5(C)CCC(NCCc6ccc(O)cc6)C(C)(C)[C@@H]5CC[C@]43C)[C@@H]12 (stereo partly drawn)", "-50.6% (active)"]
]}

List reported growth for each of these molecules:
1. Cc1c(C(=O)OCCCCOC(=O)c2c(C)n(C)c3scc[n+]23)[n+]2ccsc2n1C
2. O=c1cc(N/N=C/c2ccc(F)cc2)c2cc(Cl)ccc2[nH]1
3. Cc1n(Cc2ccc3ccccc3c2)c(Cl)c(Cl)[n+]1Cc1ccc2ccccc2c1
4. Cc1ccc(/C=C(\C#N)c2cc3ccccc3[nH]2)cc1
5. COc1ccc(C2=C(CN)C(O)NC(=NCC(=O)c3ccc4ccccc4c3)N2)cc1 (stereo not drawn)

117% (inactive)
4.1% (active)
6.73% (active)
16.2% (inactive)
99.4% (inactive)

====

Tested on: HCT-15 colon
assay comment: NCI-60 one-dose screen, 48 h (100 = growth as untreated, 0 = no growth, -100 = all killed)
measurement context: 10 µM unless noted
Compounds without any hit were thinned out: in the full panel of roughly 83,000, 20% have a hit.
So basically every entry gets a class from its growth, ranges being lower range (below 40%), middle range (40% to below 90%), upper range (90% or more)

{"columns": ["compound", "tested on", "group"],
 "data": [
  ["Cc1ccc(NC(=O)N/C(N)=N/c2nc(=O)c3ccccc3s2)cc1", "HCT-15 colon", "upper range"]
]}

Which band does NC(=O)c1c(NC(=O)/C=C/c2cccs2)sc2c1CCC(=O)C2 fall in?
lower range

====

System: HCC-2998 colon
assay comment: NCI-60 one-dose screen, 48 h
measurement context: 10 µM unless noted
About 83,000 compounds went through this panel and 20% of them were active in at least one assay; those are over-represented in the sample as a whole. Active and inactive are the calls of the source. How the source made its calls: active means growth percent below 10; inactive means the rest.
Tick one outcome: yes (active), no (inactive)

{"columns": ["compound structure string", "tested on", "group"],
 "data": [
  ["C=C(CN1CC=CCC1)[C@@H]1CC[C@]2(COC(C)=O)CC[C@]3(C)[C@H](CC[C@@H]4[C@@]5(C)CC[C@H](O)C(C)(C)[C@@H]5CC[C@]43C)[C@@H]12", "HCC-2998 colon", "no"],
  ["CN(C)C(=O)c1cc2cnc(Nc3ccc(-c4csc5c(=S)cc(N6CCOCC6)oc45)cc3)nc2n1C1CCCC1", "HCC-2998 colon", "yes"],
  ["COc1cc(-c2nc3occn3c2-c2ccnc(NCCCNS(=O)(=O)c3ccc(O)cc3)n2)ccc1F", "HCC-2998 colon", "no"]
]}

For the next question, use this compound.
Status in this test for Cc1ccc2nc3ccccc3c(NCc3ccc(Cl)cc3)c2c1 ?
yes
